B1: Azoarcus group I ribozyme (parent)
chain: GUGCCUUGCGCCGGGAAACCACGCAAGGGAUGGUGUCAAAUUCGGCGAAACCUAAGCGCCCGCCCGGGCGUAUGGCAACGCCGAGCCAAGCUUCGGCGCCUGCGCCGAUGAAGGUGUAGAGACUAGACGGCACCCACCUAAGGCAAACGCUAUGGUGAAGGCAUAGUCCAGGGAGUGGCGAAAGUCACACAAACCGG

# Variants of: B1
# Assay Explanation: reverse-splicing fitness (ratio to wild type); higher = more active; in vitro selection; Mg2+ level not given
Cut-off 0.009 on reverse-splicing fitness, inclusive. At or above means Yes; below means No.

Ask | Dear colleague, could you confirm whether C82A A120C C150A C169U U176G has reverse-splicing fitness at or above 0.009?
Reply | No

Ask | Try the variant A111G A120C C150U C169G U176A
Reply | Yes

Ask | Another variant to check: A120U A145G C169U U176G
Reply | Yes

Ask | Again, but for A111U A120U C150U C169A U176G
Reply | No

Ask | Note, next up: C82A A111C A120U A145G C150A C169U U176C
Reply | No

Ask | And what about the variant C82A A111C A145G C150G C169A ?
Reply | No

Ask | C82A A145U C150G C169A U176G ?
Reply | No

Ask | Moving on to the next variant: C169U U176C
Reply | Yes

Ask | // same read-out, input: C82G A111G A145U C150G C169A U176A
Reply | Yes

Ask | Same question for A111G A120G C169A U176C please.
Reply | Yes

Ask | What about A120C A145U C150U C169U U176G ?
Reply | Yes

Ask | Similarly, C82U A111G A120C C150A C169A U176G ?
Reply | No

Ask | And then C82U A120G A145U C150G C169A U176G , what is it?
Reply | No

Ask | Now try A111U A120C A145C C150A C169G .
Reply | No

Ask | Also C82G A111C A120G A145C C150U C169U U176A , if possible.
Reply | Yes

Ask | Follow-up entry: A111G A120G A145U C150A C169G
Reply | Yes

Ask | Entry to check: C82U A111C A120G A145U C150G C169G U176G
Reply | No

Ask | Follow-up entry: C82A A111U A120C A145G C150U C169G U176G
Reply | No

Ask | Would you kindly repeat that for C82G A111G A145C C150A C169U ?
Reply | Yes

Ask | Further, for C82U A111C A120G A145G U176A ?
Reply | Yes

Ask | Do the same for C82A A111G A120U A145U C150A C169A please
Reply | No

Ask | Same thing, different variant: A111C A120C A145G C150G C169A U176A
Reply | Yes

Ask | Try the variant C82A A111G A145G C150A C169A U176A
Reply | Yes

Ask | // next record A145U C150A
Reply | Yes

Ask | C82A A111G A120U A145G C150G C169U U176A ?
Reply | No

Ask | Another variant to check: A111C A120C A145G C150A C169U U176C
Reply | Yes

Ask | And the next one, C82A A111U A120U A145U C169U U176C ?
Reply | No

Ask | Then this variant: A111U A120C A145C C150G U176G
Reply | No

Ask | Quick one: C82A A111U A120U C150G U176G
Reply | No

Ask | Same read-out for C82G A120U A145C C150U C169G ?
Reply | No

Ask | How about this variant: C82G A111U C150G C169A U176G
Reply | No

Ask | Please do the same for A111U A145G C150G U176C as well.
Reply | Yes

Ask | Also check C82A A111G A145C C150U C169G U176C
Reply | Yes

Ask | Next entry: C82G A111U A120C A145G C150A C169G U176C
Reply | Yes

Ask | Now give it for C82U A111C A145G C150U C169A too.
Reply | Yes

Ask | Consider next the variant C82G C169A in the same way.
Reply | Yes

Ask | Then this variant: C82G A111U C150U C169G U176G
Reply | No

Ask | Also A120U A145U C150G C169A U176C ?
Reply | No

Ask | Then what about the variant C82U A111U A120C A145U C169A U176A ?
Reply | No

Ask | Try the variant C82G A111G A120G A145G C150U C169U U176G
Reply | No

Ask | Another variant to check: C82U A111C A120G A145U C150U U176A
Reply | Yes

Ask | Please give the result for C82G A111U A120C A145C C169U U176A too.
Reply | Yes

Ask | Then what about the variant C82G A120U A145C U176G ?
Reply | Yes

Ask | Same question, C82G A111G A120U C150A C169A U176G this time
Reply | No

Ask | What do you get for C82A A111U A120G A145G C150U C169A U176A ?
Reply | Yes

Ask | Please give the result for C82A C169A too.
Reply | Yes

Ask | Another variant: C82G A111U A145C C169U U176G
Reply | No

Ask | Check C82U A111G A120U A145G C150G C169A U176G too.
Reply | No

Ask | What would you report for A145C C150A C169G U176A ?
Reply | Yes

Ask | Continue with C82G A111C A145G C150U C169A
Reply | Yes

Ask | Another variant to look at: C82G A111G A120U C169G
Reply | No

Ask | Also, C82A A111G A120C A145C C150A C169G U176C please.
Reply | Yes

Ask | Repeat with C82G A111C A120G A145G
Reply | Yes

Ask | Same question, A111G A120G C150G C169U U176G this time
Reply | No

Ask | Same question, C82U A111U A120C C150A C169U this time
Reply | Yes

Ask | For A111U A145C C150G C169G U176A then?
Reply | No

Ask | Try this variant too: C82U A111G A120U A145U C150G C169G U176G
Reply | No

Ask | And for C82A A111U A145U C150A C169A U176G ?
Reply | No

Ask | Next variant: C82G A111G A120G C169G
Reply | Yes

Ask | How about C82G A120G C150U C169G ?
Reply | Yes

Ask | Again, but for C82A A111U A120C A145U C150A C169A U176C
Reply | Yes

Ask | Cool, now C82A A111U A120C A145C C150A C169U U176C
Reply | Yes

Ask | Queued: C82U A111U C150G C169U
Reply | Yes

Ask | Follow-up entry: C82G A111C A120C A145C C150A C169U
Reply | Yes

Ask | Next record, please: C82A A120U A145G C169U U176A
Reply | No

Ask | # iterate: C82A A111U A120C A145U C150U C169G U176A
Reply | Yes

Ask | Same lookup for C82U A111U A145C C150A C169U U176A , please.
Reply | Yes

Ask | Please answer likewise for C82A A111C A120G A145G C150U U176G
Reply | No

Ask | Please answer likewise for C82G A111U A120U A145G C150G C169U U176G
Reply | No

Ask | Follow-up item: C82G A120G C150A C169A
Reply | Yes

Ask | Do the same for A111C A120G A145C U176C please
Reply | Yes

Ask | And then C82U A120G C169A U176A , what is it?
Reply | Yes

Ask | Okay, and C82A A111U A120G C150U C169A U176G ?
Reply | No

Ask | Next variant up: C82G A111C A120G A145C C150U C169G U176A
Reply | Yes

Ask | Next entry: C82U A111U A120C A145C C150A U176G
Reply | No

Ask | Subsequent entry: C82U A111G A145U C150G C169A U176A
Reply | Yes

Ask | Repeat with A111G A145G U176C
Reply | Yes

Ask | Note, next up: C82A A111U A120C A145U C150U C169A U176A
Reply | Yes

Ask | What do we get for C82U A111U A120U A145C C169U ?
Reply | No

Ask | Same for C82A A111C A120U A145G U176C
Reply | Yes

Ask | Param item: A111U A120U A145C C169A
Reply | No

Ask | What do you get for C82A A111U A120G A145C C150G C169A U176G ?
Reply | No

Ask | Please do the same for C82U A111C A120U C150G U176G as well.
Reply | No

Ask | Same question for C82U A111G A120G A145C C150A C169U U176G please.
Reply | No

Ask | Let us now turn to C82U A120G C169G U176A
Reply | Yes

Ask | Another: C82U A111G A120C A145U C150U
Reply | Yes

Ask | Entry C82A A120C A145U C169U U176G please
Reply | No

Ask | Item: C82U A120U A145U C150G U176A
Reply | No

Ask | Cool, now C82A A111G A120U A145C C169A U176A
Reply | No
